System: NCIH460, HCT116, MDAMB-231/U 251
methodSummary: Anti-cancer screen, mean GI50 over the cell lines
Type: cell-based
conditions: in µM
Entry flag: class 1 if Mean GI50 reaches 9; class 0 if it does not.

- compound: "O=C(NCc1ccc(C(=O)Nc2nnc(C(F)(F)F)s2)cc1)OCc1cccs1 [Example 59]"
  experimentalTarget: "NCIH460, HCT116, MDAMB-231/U 251"
  className: "class 1"
- compound: "O=C(CCCNC(=O)Cc1csc(NC(=O)OCc2ccncc2)n1)NO [Example 97]"
  experimentalTarget: "NCIH460, HCT116, MDAMB-231/U 251"
  className: "class 1"
- compound: "O=C(CCCCCNC(=O)Cc1csc(NC(=O)OCc2nccs2)n1)NO [Example 96]"
  experimentalTarget: "NCIH460, HCT116, MDAMB-231/U 251"
  className: "class 1"
- compound: "O=C(CCCCCNC(=O)c1ccc(CNC(=O)OCc2cccs2)cc1)NO [Example 102]"
  experimentalTarget: "NCIH460, HCT116, MDAMB-231/U 251"
  className: "class 0"
- compound: "O=C(CCCNC(=O)Cc1csc(NC(=O)OCc2cccnc2)n1)NO [Example 88]"
  experimentalTarget: "NCIH460, HCT116, MDAMB-231/U 251"
  className: "class 1"
- compound: "O=C(Nc1ccc(C(=O)NO)cc1)OCC1c2ccccc2-c2ccccc21 [Example 76]"
  experimentalTarget: "NCIH460, HCT116, MDAMB-231/U 251"
  className: "class 0"
- compound: "CC(=O)ONC(=O)c1ccc(CNC(=O)OCc2cccs2)cc1 [Example 82]"
  experimentalTarget: "NCIH460, HCT116, MDAMB-231/U 251"
  className: "class 1"
- compound: "O=C(Cc1csc(NC(=O)OCc2cccs2)n1)NO [Example 2]"
  experimentalTarget: "NCIH460, HCT116, MDAMB-231/U 251"
  className: "class 1"

---

System: NCIH460, HCT116, MDAMB-231/U 251
methodSummary: Anti-cancer screen, mean GI50 over the cell lines
Format: cell-based
conditions: in µM
Listed here: items and their measured Mean GI50.
resultType: Mean GI50

- smilesStr: "O=C(CSC(F)F)Nc1cccc(NC(=O)c2ccc(CNC(=O)OCc3cccs3)cc2)c1"
  resultType: "Mean GI50"
  valueMeasured: ">100"
- smilesStr: "O=C(Cc1csc(NC(=O)OCc2cccnc2)n1)NC1CCN(Cc2ccccc2)CC1"
  resultType: "Mean GI50"
  valueMeasured: 54.8
- smilesStr: "O=C(NCc1ccc(C(=O)NO)cc1)OCc1ccc(C(F)(F)F)cc1"
  resultType: "Mean GI50"
  valueMeasured: 8.4
- smilesStr: "O=C(Nc1nc(CC(=O)N2CCCCC2)cs1)OCc1cccnc1"
  resultType: "Mean GI50"
  valueMeasured: 50
- smilesStr: "O=C(NCc1ccc(C(=O)NO)cc1)OCc1ccnc2ccccc12"
  resultType: "Mean GI50"
  valueMeasured: 13.3
- smilesStr: "Cc1ncsc1COC(=O)Nc1nc(CC(=O)NO)cs1"
  resultType: "Mean GI50"
  valueMeasured: ">100"
- smilesStr: "CC(=O)N(O)C(=O)Cc1csc(NC(=O)OCc2cccs2)n1"
  resultType: "Mean GI50"
  valueMeasured: ">100"
- smilesStr: "O=C(NCc1ccc(C(=O)Nc2nnc(C(F)(F)F)s2)cc1)OCc1nccs1"
  resultType: "Mean GI50"
  valueMeasured: ">100"
- smilesStr: "O=C(CCCCNC(=O)Cc1csc(NC(=O)OCc2nc3ccccc3s2)n1)NO"
  resultType: "Mean GI50"
  valueMeasured: 32.3
- smilesStr: "O=C(NCc1ccc(C(=O)Nc2nnc(C(F)(F)F)s2)cc1)OCc1nc2ccccc2s1"
  resultType: "Mean GI50"
  valueMeasured: 7.3
- smilesStr: "N#Cc1ccc(NC(=O)Nc2cccc(NC(=O)c3ccc(CNC(=O)OCc4cccs4)cc3)c2)cc1"
  resultType: "Mean GI50"
  valueMeasured: 6.73
- smilesStr: "Nc1ccccc1NC(=O)Cc1csc(NC(=O)OCc2ccncc2)n1"
  resultType: "Mean GI50"
  valueMeasured: ">100"
- smilesStr: "CNC(=O)c1ccc(CNC(=O)OCc2cccs2)cc1"
  resultType: "Mean GI50"
  valueMeasured: ">100"
- smilesStr: "O=C(NCc1ccc(C(=O)Nc2ccccc2NC(=O)c2ccc3c(c2)OCO3)cc1)OCc1cccs1"
  resultType: "Mean GI50"
  valueMeasured: 2.8
- smilesStr: "COC(=O)ON(C)C(=O)c1ccc(CNC(=O)OCc2cccs2)cc1"
  resultType: "Mean GI50"
  valueMeasured: 10.67
- smilesStr: "CS(=O)(=O)Oc1ccc(NC(=O)c2ccc(CNC(=O)OCc3cccs3)cc2)cc1"
  resultType: "Mean GI50"
  valueMeasured: 19.65
- smilesStr: "Nc1cccc(NC(=O)c2ccc(CNC(=O)OCc3cccs3)cc2)c1"
  resultType: "Mean GI50"
  valueMeasured: 7
- smilesStr: "O=C(CCCCCNC(=O)c1ccc(CNC(=O)OCc2cccs2)cc1)Nc1nnc(C2CC2)s1"
  resultType: "Mean GI50"
  valueMeasured: 33.5
- smilesStr: "O=C(Cc1csc(NC(=O)OCc2ccncc2)n1)NOCc1ccccc1"
  resultType: "Mean GI50"
  valueMeasured: 80.67
- smilesStr: "O=C(NCc1ccc(C(=O)N2CCN(Cc3ccc4c(c3)OCO4)CC2)cc1)OCc1nc2ccccc2s1"
  resultType: "Mean GI50"
  valueMeasured: 3.93
- smilesStr: "CCOC(=O)Cc1csc(NC(=O)c2ccc(CNC(=O)OCc3cccs3)cc2)n1"
  resultType: "Mean GI50"
  valueMeasured: 1.1
- smilesStr: "O=C(NCc1ccc(C(=O)NO)cc1)OCc1cccs1"
  resultType: "Mean GI50"
  valueMeasured: 13
- smilesStr: "O=C(NCc1ccc(C(=O)Nc2nnc(C3CC3)s2)cc1)OCc1c(F)c(F)c(F)c(F)c1F"
  resultType: "Mean GI50"
  valueMeasured: 0.5
- smilesStr: "O=C(NCc1ccc(C(=O)NO)cc1)OCc1nc2ccccc2s1"
  resultType: "Mean GI50"
  valueMeasured: 0.3
- smilesStr: "CC(=O)N(O)C(=O)Cc1csc(NC(=O)OCc2cc(Br)cs2)n1"
  resultType: "Mean GI50"
  valueMeasured: 20.1
- smilesStr: "O=C(Cc1csc(NC(=O)OCc2cccnc2)n1)Nc1nc2ccccc2s1"
  resultType: "Mean GI50"
  valueMeasured: 6
- smilesStr: "O=C(CCCCCNC(=O)Cc1csc(NC(=O)OCc2cccnc2)n1)NO"
  resultType: "Mean GI50"
  valueMeasured: ">100"
- smilesStr: "O=C(NCc1ccc(C(=O)NCCO)cc1)OCc1cccs1"
  resultType: "Mean GI50"
  valueMeasured: ">100"
- smilesStr: "CONC(=O)c1ccc(CNC(=O)OCc2cccs2)cc1"
  resultType: "Mean GI50"
  valueMeasured: ">100"
- smilesStr: "CNC(=O)Cc1csc(NC(=O)OCc2cccnc2)n1"
  resultType: "Mean GI50"
  valueMeasured: 73.3
- smilesStr: "CN(O)C(=O)c1ccc(CNC(=O)OCc2c(F)c(F)c(F)c(F)c2F)cc1"
  resultType: "Mean GI50"
  valueMeasured: 48.33
- smilesStr: "CC(=O)ONC(=O)c1ccc(CNC(=O)OCc2nccs2)cc1"
  resultType: "Mean GI50"
  valueMeasured: 16.33
- smilesStr: "COc1cc(COC(=O)NCc2ccc(C(=O)NO)cc2)cc(OC)c1OC"
  resultType: "Mean GI50"
  valueMeasured: 36.2
- smilesStr: "O=C(NCc1ccc(C(=O)Nc2ncc([N+](=O)[O-])s2)cc1)OCc1cccs1"
  resultType: "Mean GI50"
  valueMeasured: 40.33
- smilesStr: "O=C(NCc1ccc(C(=O)N2CCN(Cc3ccc4c(c3)OCO4)CC2)cc1)OCc1nccs1"
  resultType: "Mean GI50"
  valueMeasured: 2.6
- smilesStr: "Nc1ccccc1NC(=O)Cc1csc(NC(=O)OCc2c(F)c(F)c(F)c(F)c2F)n1"
  resultType: "Mean GI50"
  valueMeasured: 37

---

Tested on: NCIH460, HCT116, MDAMB-231/U 251
methodSummary: Anti-cancer screen, mean GI50 over the cell lines
Type: cell-based
conditions: in µM

- compound: "O=C(Nc1nc(CC(=O)N2CCC(N3CCCCC3)CC2)cs1)OCc1cccnc1 [Example 13]"
  limitOperator: ">"
  Mean GI50: 100
- compound: "COC(=O)ONC(=O)c1ccc(CNC(=O)OCc2cccs2)cc1 [Example 84]"
  limitOperator: ">"
  Mean GI50: 100
- compound: "O=C(NCc1ccc(C(=O)Nc2nnc(C3CC3)s2)cc1)OCc1c(F)cc(F)cc1F [Example 63]"
  limitOperator: "="
  Mean GI50: 5.52
- compound: "CN(O)C(=O)c1ccc(CNC(=O)OCc2cccs2)cc1 [Example 46]"
  limitOperator: "="
  Mean GI50: 66
- compound: "O=C(Nc1ccc(C(=O)NO)o1)OCc1ccccc1 [Example 75]"
  limitOperator: ">"
  Mean GI50: 100
- compound: "O=C(Nc1nc(CC(=O)N2CCOCC2)cs1)OCc1cccnc1 [Example 10]"
  limitOperator: "="
  Mean GI50: 26.7
- compound: "COC(CNC(=O)c1ccc(CNC(=O)OCc2cccs2)cc1)OC [Example 53]"
  limitOperator: "="
  Mean GI50: 2.4
- compound: "O=C(CCCCCNC(=O)Cc1csc(NC(=O)OCc2ccncc2)n1)NO [Example 98]"
  limitOperator: ">"
  Mean GI50: 100
- compound: "CC(=O)N(O)C(=O)Cc1csc(NC(=O)OCc2ccc(Br)s2)n1 [Example 78]"
  limitOperator: "="
  Mean GI50: 18.8

This collection of values is drawn from patent US20100152188A1.
